In this section, each of the molecules is paired with its reported IC50.
Subject Of Test: Mast/stem cell growth factor receptor Kit (Homo sapiens, UniProt P10721)
Sequence (P10721 whole entry): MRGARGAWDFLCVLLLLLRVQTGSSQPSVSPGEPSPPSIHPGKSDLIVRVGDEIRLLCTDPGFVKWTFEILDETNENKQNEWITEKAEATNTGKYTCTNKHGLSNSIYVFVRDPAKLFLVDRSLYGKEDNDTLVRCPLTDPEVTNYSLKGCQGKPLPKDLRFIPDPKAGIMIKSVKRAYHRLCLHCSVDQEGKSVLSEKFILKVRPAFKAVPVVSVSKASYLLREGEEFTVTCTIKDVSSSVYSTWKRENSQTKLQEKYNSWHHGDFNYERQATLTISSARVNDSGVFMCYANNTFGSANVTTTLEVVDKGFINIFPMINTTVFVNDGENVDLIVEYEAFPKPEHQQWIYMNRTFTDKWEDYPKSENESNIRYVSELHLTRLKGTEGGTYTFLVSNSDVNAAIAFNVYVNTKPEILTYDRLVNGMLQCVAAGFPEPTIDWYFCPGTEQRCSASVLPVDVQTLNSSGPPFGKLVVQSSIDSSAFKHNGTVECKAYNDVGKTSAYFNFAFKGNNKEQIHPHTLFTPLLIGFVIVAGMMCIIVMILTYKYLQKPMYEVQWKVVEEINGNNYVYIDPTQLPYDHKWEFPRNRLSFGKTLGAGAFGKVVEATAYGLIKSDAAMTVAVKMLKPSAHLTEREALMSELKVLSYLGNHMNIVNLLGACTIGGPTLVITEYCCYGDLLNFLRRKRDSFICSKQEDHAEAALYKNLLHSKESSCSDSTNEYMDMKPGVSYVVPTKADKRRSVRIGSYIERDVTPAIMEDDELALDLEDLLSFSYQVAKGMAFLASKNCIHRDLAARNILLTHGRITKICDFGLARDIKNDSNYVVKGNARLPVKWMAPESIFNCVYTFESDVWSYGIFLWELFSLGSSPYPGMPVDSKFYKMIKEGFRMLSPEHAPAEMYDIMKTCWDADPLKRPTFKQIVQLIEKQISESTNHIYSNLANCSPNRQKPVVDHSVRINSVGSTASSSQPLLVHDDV

Cc1ccc(-c2noc(C3C[C@@H]3F)n2)cc1NC(=O)c1cnn2ccc(N3C[C@H](CS(C)(=O)=O)[C@@H]3C)cc12 (some centres not stated) [US20250059174, Example 172] : < 100 nM

We now examine a further molecule.
Item Cc1ccc(-c2noc([C@H]3C[C@@H]3F)n2)cc1NC(=O)c1cnc(N2CC(C(=O)O)C2)s1 [US20250059174, Example 98-4] ; assay system Mast/stem cell growth factor receptor Kit (Homo sapiens, UniProt P10721); IC50 reported as > 1000 nM
